MEASURED_TARGET: hTGR5 (Homo sapiens, UniProt Q8TDU6)
Construct: expressed in transfected cells; host or cells: HEK293 cells, transiently co-transfected with the pCRE TA-Luciferase reporter
Sequence (Q8TDU6 whole entry): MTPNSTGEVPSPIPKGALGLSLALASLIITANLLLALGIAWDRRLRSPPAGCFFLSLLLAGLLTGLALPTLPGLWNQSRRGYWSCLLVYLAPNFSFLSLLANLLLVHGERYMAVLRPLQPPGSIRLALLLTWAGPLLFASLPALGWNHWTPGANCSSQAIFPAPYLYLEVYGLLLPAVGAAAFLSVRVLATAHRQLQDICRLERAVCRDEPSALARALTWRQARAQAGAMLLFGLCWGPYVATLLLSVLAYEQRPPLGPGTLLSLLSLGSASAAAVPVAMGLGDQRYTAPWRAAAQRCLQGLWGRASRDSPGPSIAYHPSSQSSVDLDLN
PROCEDURE_SUMMARY: TGR5/CRE Luciferase Assay (hTGR5)
Format: cell-based
ASSAY_CONDITIONS: percentage of the 10 μM LCA value; HEK 293 cells transfected with hTGR5
Documented hTGR5 % trans across a set of compounds
ENDPOINT_NAME: hTGR5 % trans (%)

1) COCCN1C(=O)CC(c2ccc(Cl)cc2)C(C(=O)OCc2ccncc2)=C1C (centres unmarked) : 71
2) CC1=C(C(=O)OCc2ccccc2)C(c2ccccc2C(F)(F)F)CC(=O)N1 (centres unmarked) : 22
3) CC1=C(C(=O)OCc2ccccc2)C(c2ccc(Cl)cc2)CC(=O)N1CCN1CCCCC1 (centres unmarked) : 50
4) CC1=C(C(=O)OCc2ccccc2)C(c2ccc(Cl)cc2)CC(=O)N1CC1CCC1 (centres unmarked) : 59
5) COCCN1C(=O)CC(c2ccc(-c3ccccc3)cc2)C(C(=O)OCc2ccccc2)=C1C (centres unmarked) : 17
6) CCOC(=O)C1=C(c2ccccc2)N(C)C(=O)CC1c1ccc(Cl)cc1 (centres unmarked) : 42
7) CC1=C(C(=O)OCc2ccccn2)[C@H](c2ccc(Cl)cc2)CC(=O)N1C[C@H]1CCCO1 (racemic) : 72
8) COCCN1C(=O)CC(c2ccc(Cl)cc2)C(C(=O)OCc2ccc(F)cc2)=C1C (centres unmarked) : 71

---

MEASURED_TARGET: mTGR5 (Mus musculus, UniProt Q80SS6)
Construct: expressed in transfected cells; host or cells: HEK293 cells, transiently co-transfected with the pCRE TA-Luciferase reporter
Sequence (Q80SS6 1-329): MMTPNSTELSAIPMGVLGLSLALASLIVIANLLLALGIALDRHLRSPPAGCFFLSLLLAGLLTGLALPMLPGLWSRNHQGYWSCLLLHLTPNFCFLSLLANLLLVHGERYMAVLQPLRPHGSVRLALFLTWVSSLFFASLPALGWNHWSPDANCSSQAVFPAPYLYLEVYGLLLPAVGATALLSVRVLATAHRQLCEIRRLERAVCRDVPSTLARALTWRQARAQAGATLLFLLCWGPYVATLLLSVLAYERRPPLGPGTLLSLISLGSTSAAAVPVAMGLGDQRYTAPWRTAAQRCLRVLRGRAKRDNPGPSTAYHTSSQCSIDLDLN
PROCEDURE_SUMMARY: TGR5/CRE Luciferase Assay (mTGR5)
Type: cell-based
ASSAY_CONDITIONS: HEK 293 cells co-transfected with pCMV AC6-TGR5m and pCRE TA-Luciferase; overnight incubation
pEC50: −log10 of the molar value.
// reported pEC50 per item
ENDPOINT_NAME: pEC50

1. CN1C=C(C(=O)N(C)Cc2ccccc2)C(c2ccc(Cl)cc2)CC1=O (stereo not shown) [Compound 33a] : 5.96
2. CC1=C(C(=O)OCc2ccccc2)C(c2ccc(Cl)cc2)CC(=O)N1CC(=O)OC(C)(C)C (stereo not shown) [Compound 58] : 6.38
3. CCCC1CC(=O)N(CCOC)C(C)=C1C(=O)OCc1ccccc1OC (stereo not shown) [Example 121] : 5.92
4. COCCN1C(=O)CC(c2ccc(Cl)cc2)C(C(=O)OCc2cccc(C#N)c2)=C1C (stereo not shown) [Example 94] : 6.40
5. COCCN1C(=O)CC(c2ccc(-c3ccccc3)cc2)C(C(=O)OCc2ccccc2)=C1C (stereo not shown) [Example 123] : 5.55
6. CC1=C(C(=O)OCc2ccccc2)C(c2ccc(Cl)cc2)CC(=O)N1CC(N)=O (stereo not shown) [Compound 60] : 4.84
7. COCCN1C(=O)CC(c2ccc(Cl)cc2)C(C(=O)OCc2ccncc2)=C1C (stereo not shown) [Example 107] : 6.22
8. O=C(OCc1ccccc1)C1=CN(CC2CC2)C(=O)CC1c1ccc(Cl)cc1 (stereo not shown) [Compound 29] : 5.82
9. COCCN1C(=O)CC(c2ccc(Cl)cc2)C(C(=O)OCc2ccc3ccccc3c2)=C1C (stereo not shown) [Example 106] : 6.70
10. CC1=C(C(=O)OCc2ccccc2OCCS(=O)(=O)O)[C@@H](c2ccc(Cl)nc2)CC(=O)N1C[C@@H]1CCCO1.N (racemic) [Example 158] : 5.89
11. COCCN1C(=O)CC(c2ccc(Cl)cc2)C(C(=O)OCc2cccc(Cl)c2)=C1C (stereo not shown) [Example 88] : 6.40
12. CC1=C(C(=O)OCc2ccc(OCCS(=O)(=O)O)cc2)[C@@H](c2ccc(Cl)nc2)CC(=O)N1C[C@@H]1CCCO1.N (racemic) [Example 153] : 6.89
13. CC1=C(C(=O)OCc2ccccc2)C(c2ccc(C(F)(F)F)cc2)CC(=O)N1 (stereo not shown) [Compound 9] : 5.85
14. COc1ccccc1C1CC(=O)NC(C)=C1C(=O)OCc1ccccc1 (stereo not shown) [Compound 4] : 5.07
15. CCCN1C(=O)CC(c2ccc(Cl)cc2)C(C(=O)OCc2ccccc2)=C1C (stereo not shown) [Compound 35] : 6.10
16. COCCC1=C(C(=O)OCc2ccccc2)C(c2ccc(Cl)cc2)CC(=O)N1 (stereo not shown) [Compound 22] : 5.37
